Percent Effect by entry:
# Test Target: Chromo domain-containing protein 1 (Saccharomyces cerevisiae (strain ATCC 204508 / S288c) (Baker's yeast)) (UniProt P32657)
# Sequence (P32657 whole entry, the tested form may be a part): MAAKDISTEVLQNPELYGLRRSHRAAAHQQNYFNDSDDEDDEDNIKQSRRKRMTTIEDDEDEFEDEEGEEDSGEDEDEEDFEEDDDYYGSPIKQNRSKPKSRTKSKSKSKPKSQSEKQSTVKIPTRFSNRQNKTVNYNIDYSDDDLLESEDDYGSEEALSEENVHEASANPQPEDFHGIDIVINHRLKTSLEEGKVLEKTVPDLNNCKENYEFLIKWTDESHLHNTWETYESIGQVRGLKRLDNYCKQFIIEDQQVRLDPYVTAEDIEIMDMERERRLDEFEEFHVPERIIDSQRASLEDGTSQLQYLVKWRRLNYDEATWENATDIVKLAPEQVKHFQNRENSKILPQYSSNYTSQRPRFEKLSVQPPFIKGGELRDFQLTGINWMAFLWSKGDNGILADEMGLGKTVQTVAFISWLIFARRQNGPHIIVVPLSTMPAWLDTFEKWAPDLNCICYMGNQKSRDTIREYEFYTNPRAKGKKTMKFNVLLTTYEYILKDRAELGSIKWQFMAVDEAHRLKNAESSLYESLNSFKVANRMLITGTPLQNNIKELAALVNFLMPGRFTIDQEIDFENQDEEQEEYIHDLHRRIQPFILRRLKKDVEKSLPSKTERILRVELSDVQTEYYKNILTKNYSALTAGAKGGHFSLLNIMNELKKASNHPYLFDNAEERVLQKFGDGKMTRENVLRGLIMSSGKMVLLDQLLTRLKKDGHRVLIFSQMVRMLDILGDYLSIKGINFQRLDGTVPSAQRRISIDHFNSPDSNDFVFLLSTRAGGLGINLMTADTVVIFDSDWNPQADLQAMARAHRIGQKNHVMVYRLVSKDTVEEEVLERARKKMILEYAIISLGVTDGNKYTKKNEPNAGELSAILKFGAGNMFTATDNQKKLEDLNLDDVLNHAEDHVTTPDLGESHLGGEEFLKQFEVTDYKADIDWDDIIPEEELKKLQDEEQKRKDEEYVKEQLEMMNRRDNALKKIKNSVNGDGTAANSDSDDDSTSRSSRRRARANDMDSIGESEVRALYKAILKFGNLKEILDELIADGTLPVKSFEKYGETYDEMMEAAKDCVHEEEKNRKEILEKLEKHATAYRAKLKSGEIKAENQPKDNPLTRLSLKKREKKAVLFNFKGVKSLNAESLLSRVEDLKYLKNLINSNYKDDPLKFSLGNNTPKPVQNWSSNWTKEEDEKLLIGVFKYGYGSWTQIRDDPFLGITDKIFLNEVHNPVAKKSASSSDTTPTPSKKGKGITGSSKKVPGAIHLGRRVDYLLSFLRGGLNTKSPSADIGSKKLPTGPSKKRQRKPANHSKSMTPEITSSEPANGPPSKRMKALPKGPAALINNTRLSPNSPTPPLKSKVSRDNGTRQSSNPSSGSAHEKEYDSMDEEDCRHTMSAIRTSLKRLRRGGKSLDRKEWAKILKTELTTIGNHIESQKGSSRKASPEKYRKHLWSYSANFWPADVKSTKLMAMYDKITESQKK
# Protocol Notes: ScCHD-1 Enzyme Inhibition Assay; note: in the data most compounds retested in dose-response had high values
# Assay type: functional
# Parameters: scale not given: direction of the effect not stated beside the values
# Condition Parameters: 30 µM
Give just the number in %; leave the unit off.

Solved cases (2 shown):
CCCn1ccc(C(=O)N2CCOC(c3nc(-c4cccs4)no3)C2)n1 (stereo not drawn); -17.3
COc1ccc(OC)c(C2CCN(Cc3nc(C)n4ccccc34)C2)c1 (stereo not drawn); -3.48

Form field: reported Percent Effect of `COc1ccccc1OCC(=O)NS(=O)(=O)c1ccc(C)s1`
-3.45

Form field: reported Percent Effect of `Cn1ccc(C(=O)NCc2cccc(CN3CCCC3)c2)cc1=O`
-13

Form field: reported Percent Effect of `CC(=O)N1CCCN(Cc2csc(-c3ncccn3)n2)CC1`
-3.23

Form field: reported Percent Effect of `CN(CCO)Cc1nnc(C2CCN(C(=O)c3cccnc3)CC2)n1C`
-7.14

Form field: reported Percent Effect of Cc1cccc(Nc2nccnc2C2CCCN2CC(=O)N(C)C)n1 (stereo not drawn)
3.88

====

Percent Effect by entry:
# Test Target: Arginase-2, mitochondrial (Homo sapiens)
# Sequence (whole entry): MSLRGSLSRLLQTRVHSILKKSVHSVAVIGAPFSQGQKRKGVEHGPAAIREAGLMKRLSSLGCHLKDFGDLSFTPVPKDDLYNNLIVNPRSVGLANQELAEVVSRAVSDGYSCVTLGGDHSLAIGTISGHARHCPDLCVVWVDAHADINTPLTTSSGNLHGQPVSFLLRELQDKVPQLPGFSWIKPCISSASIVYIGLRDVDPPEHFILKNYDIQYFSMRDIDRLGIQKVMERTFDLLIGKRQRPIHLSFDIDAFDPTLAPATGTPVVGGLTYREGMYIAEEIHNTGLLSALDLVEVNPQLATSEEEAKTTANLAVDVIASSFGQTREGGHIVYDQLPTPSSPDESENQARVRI
# Protocol Notes: in vitro enzyme assay to detect the production of urea directly proportional to the activity of Arginase II; note: in the data most compounds retested in dose-response had high values
# Assay type: functional
# Parameters: scale not given: direction of the effect not stated beside the values
# Condition Parameters: 33.3 µM
Give just the number in %; leave the unit off.

Solved cases (3 shown):
COc1ccc(S(N)(=O)=O)cc1C(=O)N(C)Cc1cc(C)on1; -2.87
N#Cc1cn(C2CC2)c(=O)n(CC(O)c2ccccc2F)c1=O (stereo unspecified); -1.15
NC(=O)c1cc(NC(=O)NCCc2cc(F)cc(F)c2)ccc1F; -2.66

Form field: reported Percent Effect of `CC(C)c1noc(CN2CCN(C(=O)c3ccccc3F)CC2)n1`
-3.88

====

Percent Effect by entry:
# Test Target: Sialic acid-binding Ig-like lectin 9 (Homo sapiens)
# Protocol Notes: Hs-Siglec9 ALPHAscreen SOP 20170721
# Design: scale not given: direction of the effect not stated beside the values
# Condition Parameters: 10 µM
Give just the number in %; leave the unit off.

CC(=O)Nc1cc(C(=O)N2CCOCC2c2ccc(C)o2)ccc1F (centres undefined); -1.06
CCOC(=O)CNC(=O)c1cccnc1Oc1ccc(Cl)cc1; 56.3
Cn1ncc(NCc2cccc(COC(C)(C)C)c2)c(Cl)c1=O; 4.11
CN(C)C(=O)N1CCc2c(CNc3ncccn3)cncc2C1; 7.13
CCN1CCn2nc(CCC(=O)N3CCCC3)cc2C1; 0.796

Form field: reported Percent Effect of `COCC(=O)N1CC[C@@H](N2CCOCC2)[C@@H]1Cc1ccccc1`
-1.41

Form field: reported Percent Effect of `COCCCNC(=O)CN(C)C(=O)c1cc(C)ccc1O`
-4.94

Form field: reported Percent Effect of `CCCS(=O)(=O)N1CCN(c2ccnc(N3CCCC3)n2)CC1`
12.4
